Values compiled from ChEMBL document CHEMBL1143807.

Assay notes: Cmax in Sprague-Dawley rat at 10 mg/kg, po
Type: ADME, organism-based
Parameters: dose 10 mg/kg, route oral
Conditions: in vivo
Measure name: Cmax (ng/mL)
Value expressed in ng/mL; do not type the unit.

Problem: I'd like to know its Cmax. The compound in question is CCCO/N=C(\C)C(Cc1ccc(OCc2nc(-c3ccccc3)oc2C)cc1)C(=O)O (stereo unspecified)
Solution: 22600

---

Assay notes: Bioavailability in Sprague-Dawley rat at 10 mg/kg, po
Format: ADME, organism-based
Conditions: in vivo
Measure name: bioavailability

Problem: Record request: bioavailability value, item CCCO/N=C(\C)C(Cc1ccc(OCc2nc(-c3ccccc3)oc2C)cc1)C(=O)O (stereo unspecified)
Solution: 75.5%

---

Assay notes: AUC (0-24 hrs) in Sprague-Dawley rat at 10mg/kg, po
Format: ADME, organism-based
Parameters: dose 10 mg/kg, time < 24 hr, route oral
Conditions: plasma
Measure name: AUC(0-t) at 24 h (µg·h/mL)
Respond with the bare value in µg·h/mL.

Problem: What value of measured AUC(0-t) at 24 h is listed for CCCO/N=C(\C)C(Cc1ccc(OCc2nc(-c3ccccc3)oc2C)cc1)C(=O)O (stereo unspecified) ?
Solution: 162

---

Target or test system: Peroxisome proliferator-activated receptor alpha (Homo sapiens, UniProt Q07869)
Sequence (Q07869 whole entry, the tested form may be a part): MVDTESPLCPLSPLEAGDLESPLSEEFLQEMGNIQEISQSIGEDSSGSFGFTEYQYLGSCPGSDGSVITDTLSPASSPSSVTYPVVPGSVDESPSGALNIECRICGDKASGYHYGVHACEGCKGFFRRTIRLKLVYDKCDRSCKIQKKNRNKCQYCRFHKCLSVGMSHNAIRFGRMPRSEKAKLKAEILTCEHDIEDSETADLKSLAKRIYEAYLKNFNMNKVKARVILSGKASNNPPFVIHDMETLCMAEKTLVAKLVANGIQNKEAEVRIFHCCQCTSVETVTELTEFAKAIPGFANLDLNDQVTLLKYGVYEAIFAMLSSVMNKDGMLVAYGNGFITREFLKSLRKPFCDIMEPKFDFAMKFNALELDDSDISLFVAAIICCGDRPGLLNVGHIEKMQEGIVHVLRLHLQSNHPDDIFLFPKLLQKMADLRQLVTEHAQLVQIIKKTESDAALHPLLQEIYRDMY
Assay notes: Agonist activity at human PPARalpha in HepG2 cells by PPAR-GAL4 transactivation assay
pEC50: −log10 of the molar value.
Kindly return YES if reported pEC50 is no lower than 8; return NO if it is lower.

Problem: Please tell me: is the compound CCO[C@@H](Cc1ccc(OCCc2ccc(OS(C)(=O)=O)cc2)cc1)C(=O)O [TESAGLITAZAR] at or over 8 in terms of pEC50?
Solution: NO

Problem: Check if pEC50 >= 8 (inclusive). Item: CCO/N=C(\C)C(Cc1ccc(OCc2nc(C(C)C)oc2C)cc1)C(=O)O (centres undefined)
Solution: NO

Problem: Does the reported pEC50 for CCCO/N=C(\C)C(Cc1ccc(OCc2nc(-c3ccccc3)oc2C)cc1)C(=O)O (centres undefined) fall at or above the 8 mark?
Solution: NO

Problem: Reported pEC50 at or above 8? C/C(=N\OCC1CC1)C(Cc1ccc(OCCc2nc(-c3ccccc3)oc2C)cc1)C(=O)O (centres undefined)
Solution: YES

Problem: Is reported pEC50 greater than or equal to 8 here: C/C(=N/OCc1ccc(F)cc1)C(Cc1ccc(OCCc2nc(-c3ccccc3)oc2C)cc1)C(=O)O (centres undefined)
Solution: NO

Problem: Hi team, for CCO/N=C(\CC)C(Cc1ccc(OCCc2nc(-c3ccccc3)oc2C)cc1)C(=O)O (centres undefined) , is the recorded pEC50 at or above 8?
Solution: NO

Problem: Is it the case that C/C(=N\OCCF)C(Cc1ccc(OCCc2nc(-c3ccc(F)cc3)oc2C)cc1)C(=O)O (centres undefined) has pEC50 reaching or exceeding 8?
Solution: YES

Problem: Tell me whether pEC50 is at least 8 here: CCCO/N=C(\C)C(Cc1ccc(OCc2nc(C(C)C)oc2C)cc1)C(=O)O (centres undefined)
Solution: NO

Problem: Can CCCO/N=C(\C)C(Cc1ccc(OCCc2nc(-c3ccccc3)oc2C)cc1)C(=O)O (centres undefined) be said to have pEC50 at or above 8?
Solution: YES

Problem: Hi, just wondering whether CCCCO/N=C(\C)C(Cc1ccc(OCCc2nc(-c3ccccc3)oc2C)cc1)C(=O)O (centres undefined) shows pEC50 of 8 or higher.
Solution: YES

Problem: hey, is pEC50 for this one >= 8? CCCO/N=C(\C)C(Cc1ccc(OCCc2nc(-c3ccc(F)cc3)oc2C)cc1)C(=O)O (centres undefined)
Solution: YES

Problem: Decide: is the reported value of pEC50 for CCO/N=C(\C)C(Cc1ccc(OCCc2nc(C(C)C)oc2C)cc1)C(=O)O (centres undefined) equal to or greater than 8?
Solution: NO

Problem: Hello, I need to know if C/C(=N\OCCF)C(Cc1ccc(OCc2nc(-c3ccc(F)cc3)oc2C)cc1)C(=O)O (centres undefined) has measured pEC50 not below 8. Thanks!
Solution: NO

Problem: Could you verify whether the entry CO/N=C(\C)C(Cc1ccc(OCCc2nc(-c3ccccc3)oc2C)cc1)C(=O)O (centres undefined) shows pEC50 of no less than 8?
Solution: NO

Problem: Please check the record C/C(=N\OCC(C)C)C(Cc1ccc(OCCc2nc(-c3ccccc3)oc2C)cc1)C(=O)O (centres undefined) and state if its pEC50 is at or above 8.
Solution: YES
